# Assay Overview: liver microsome stability
# Assay type: in vitro ADME, Mouse
# Cond: mouse, liver microsomes, 5.0 μM, Mouse; read-out: NADPH-free T1/2 (half-life)
Catalogue of half-life at 5 μM values
Observation Type: half-life at 5 μM

COc1ccc2c3c1O[C@H]1C[C@@H](O)C=C[C@@]31CCN(C)C2 [Galanthamine HBr, reference compound] : > 1 h
CCCCNC(=O)O[C@H]1C=C[C@@]23CCN(C)Cc4ccc(OC)c(c42)O[C@H]3C1 [Galantamine n-butylcarbamate] : > 1 h

###

# Assay Overview: liver microsome stability
# Assay type: in vitro ADME, Mouse
# Cond: mouse, liver microsomes, 5.0 μM, Mouse; read-out: NADPH-dependent T1/2 (half-life)
Catalogue of half-life at 5 μM values
Observation Type: half-life at 5 μM

COc1ccc2c3c1O[C@H]1C[C@@H](O)C=C[C@@]31CCN(C)C2 [Galanthamine HBr, reference compound] : > 1 h
CCCCNC(=O)O[C@H]1C=C[C@@]23CCN(C)Cc4ccc(OC)c(c42)O[C@H]3C1 [Galantamine n-butylcarbamate] : 1.64 h

###

# Assay Overview: liver microsome stability
# Type: in vitro ADME, Mouse
# Cond: mouse, liver microsomes, in-vitro preparation of liver microsomes; read-out: half-life in liver microsomes
Observation Type: half-life at 5 μM

CCCCNC(=O)O[C@H]1C=C[C@@]23CCN(C)Cc4ccc(OC)c(c42)O[C@H]3C1 [Galantamine n-butylcarbamate] : > 1 h

Source: patent US10561665B2
